Values from patent US20120172379A1

Target: PKC theta kinase (Homo sapiens)
Sequence (Q04759 whole entry): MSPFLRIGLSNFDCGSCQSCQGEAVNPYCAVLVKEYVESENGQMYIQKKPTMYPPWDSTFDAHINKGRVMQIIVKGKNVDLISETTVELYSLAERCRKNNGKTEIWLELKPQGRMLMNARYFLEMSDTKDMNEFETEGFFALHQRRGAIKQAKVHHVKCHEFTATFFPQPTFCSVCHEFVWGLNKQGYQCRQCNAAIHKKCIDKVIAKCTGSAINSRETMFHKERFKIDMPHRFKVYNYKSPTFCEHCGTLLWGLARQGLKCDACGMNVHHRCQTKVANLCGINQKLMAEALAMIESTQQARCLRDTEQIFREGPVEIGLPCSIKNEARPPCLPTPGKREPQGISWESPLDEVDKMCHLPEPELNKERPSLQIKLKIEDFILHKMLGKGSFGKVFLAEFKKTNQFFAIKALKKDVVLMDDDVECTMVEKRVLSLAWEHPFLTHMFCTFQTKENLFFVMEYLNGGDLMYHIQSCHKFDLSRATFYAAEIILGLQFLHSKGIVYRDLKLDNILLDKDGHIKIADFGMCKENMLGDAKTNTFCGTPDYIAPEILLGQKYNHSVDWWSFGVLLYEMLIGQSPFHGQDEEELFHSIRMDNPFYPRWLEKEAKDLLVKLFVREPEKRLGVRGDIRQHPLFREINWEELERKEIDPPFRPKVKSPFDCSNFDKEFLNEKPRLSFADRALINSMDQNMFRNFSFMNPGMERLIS
pKi: −log10 of the molar value.
Assay readout: pKi

q: Any idea what pKi was measured for Cc1n[nH]c2ncnc(-c3cccc(C4(CN)CC4)c3)c12 [Compound 6] ?
a: 6.30 to 7.30

q: Look up pKi for this compound: CCc1n[nH]c2ncnc(-c3cc(F)cc(C4(CN)CCC4)c3)c12 [Compound 8]
a: > 7.30

q: Using the record for NC(=O)C1(c2cccc(-c3ncnc4[nH]nc(C(F)(F)F)c34)c2)CC1 [Compound 7] , report its pKi.
a: < 6.15

----------
Target: PKC delta kinase (Homo sapiens)
Sequence (Q05655 whole entry): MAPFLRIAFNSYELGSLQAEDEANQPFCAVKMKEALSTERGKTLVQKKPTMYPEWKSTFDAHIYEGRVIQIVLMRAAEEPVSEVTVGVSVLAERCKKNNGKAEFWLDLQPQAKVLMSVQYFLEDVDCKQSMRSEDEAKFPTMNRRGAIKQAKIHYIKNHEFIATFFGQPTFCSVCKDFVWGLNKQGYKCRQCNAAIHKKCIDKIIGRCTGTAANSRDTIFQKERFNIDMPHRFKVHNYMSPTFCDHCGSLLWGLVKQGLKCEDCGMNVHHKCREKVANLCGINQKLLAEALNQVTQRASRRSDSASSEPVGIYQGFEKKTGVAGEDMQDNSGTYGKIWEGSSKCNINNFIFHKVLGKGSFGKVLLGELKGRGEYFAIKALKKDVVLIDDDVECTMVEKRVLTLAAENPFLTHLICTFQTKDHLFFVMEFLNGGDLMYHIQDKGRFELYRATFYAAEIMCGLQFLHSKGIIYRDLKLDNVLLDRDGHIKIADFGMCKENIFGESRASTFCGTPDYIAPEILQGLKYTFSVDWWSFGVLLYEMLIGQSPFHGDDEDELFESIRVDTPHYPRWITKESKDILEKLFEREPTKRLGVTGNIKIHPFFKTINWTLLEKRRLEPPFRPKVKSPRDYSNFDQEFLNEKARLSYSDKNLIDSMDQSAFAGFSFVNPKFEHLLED
Assay: PKC Delta coupled-enzyme kinase assay (NADH consumption, absorbance at 340 nm)
Details: 46 nM PKC delta kinase, ATP final assay concentration of 150, 150 μM substrate peptide, 30° C.
pKi: −log10 of the molar value.
Assay readout: pKi

q: Please report the recorded pKi for CCc1n[nH]c2ncnc(-c3cc(F)cc(C4(CN)CCC4)c3)c12 .
a: 6.30 to 7.30

q: Look up pKi: Cc1n[nH]c2ncnc(-c3cccc(C4(C#N)CC4)c3)c12
a: < 5.90

q: What does the data say about its pKi? Entry: NC(=O)C1(c2cccc(-c3ncnc4[nH]nc(C(F)(F)F)c34)c2)CC1
a: < 5.90

q: Item CCc1n[nH]c2ncnc(-c3cccc(C4(CN)CC4)c3)c12 has what recorded pKi?
a: 6.30 to 7.30

q: Name the recorded pKi for N#CC1(c2cccc(-c3ncnc4[nH]nc(C5CC5)c34)c2)CC1 .
a: < 5.90

q: # lookup: pKi of N#CC1(c2cccc(-c3ncnc4[nH]ncc34)c2)CC1
a: 5.55 to 6.30

q: Can you share its pKi? I mean this molecule: Cc1n[nH]c2ncnc(-c3cccc(C4(CN)CC4)c3)c12
a: 5.55 to 6.30

----------
pKi: −log10 of the molar value.
Assay readout: pKi

q: pKi of CCc1n[nH]c2ncnc(-c3cccc(C4(CN)CC4)c3)c12 on PKC alpha kinase (Homo sapiens)?
a: 5.55 to 6.30

q: Look up pKi with PKC alpha kinase (Homo sapiens) for this compound: NC(=O)C1(c2cccc(-c3ncnc4[nH]nc(C(F)(F)F)c34)c2)CC1
a: < 5.90

q: Write down the reported pKi of N#CC1(c2cccc(-c3ncnc4[nH]ncc34)c2)CC1 , test system: PKC alpha kinase (Homo sapiens).
a: < 5.90

q: Lab request: please report pKi under test system PKC alpha kinase (Homo sapiens) for CCc1n[nH]c2ncnc(-c3cccc(C4(C#N)CC4)c3)c12
a: < 5.90

q: Query pKi on PKC alpha kinase (Homo sapiens) for CCc1n[nH]c2ncnc(-c3cc(F)cc(C4(CN)CCC4)c3)c12
a: 6.30 to 7.30

q: Please provide the recorded pKi for Cc1n[nH]c2ncnc(-c3cccc(C4(C#N)CC4)c3)c12 , tested on PKC alpha kinase (Homo sapiens).
a: < 5.90
